Source of measurements: patent US7999011B2

- experiment_summary: End-tidal gas analysis
- Assay type: in vivo, rabbit
- condition: Reperfusion 2 h
endpoint: EtCO2 (mmHg)
The reply should contain only the number, in mmHg.

Consider the worked cases shown below.
molecule | EtCO2 / mmHg
FCOC(C(F)(F)F)C(F)(F)F | 33
FC(F)OC(Cl)C(F)(F)F (stereo not shown) | 28
FC(F)OC(F)C(F)(F)F (stereo not shown) | 28

INPUT: Quick one: EtCO2 for FC(F)OC(F)(F)C(F)Cl (stereo not shown) ?
OUTPUT: 33

* * *

- experiment_summary: Arterial blood gas analysis
- Type: in vivo, rabbit
- condition: arterial blood; Memory
endpoint: pH
Give the figure only, with no unit attached.

compound | pH
FCOC(C(F)(F)F)C(F)(F)F | 7.39
FC(F)OC(F)C(F)(F)F (stereo not shown) | 7.36

INPUT: Can you look up the measured pH of FC(F)OC(F)(F)C(F)Cl (stereo not shown) for me?
OUTPUT: 7.40

INPUT: Which value of pH has been reported for FC(F)OC(Cl)C(F)(F)F (stereo not shown) in the records?
OUTPUT: 7.36
